Molecular target: T1, cynomolgus monkey CTLA4-his protein (Acro biosystems, Cat#CT4-C5227) (cynomolgus monkey, UniProt G7PL88 36-161)
T1 construct: bought recombinant protein; also called Cynomolgus CTLA4-his; not shown: his tag
T1 sequence: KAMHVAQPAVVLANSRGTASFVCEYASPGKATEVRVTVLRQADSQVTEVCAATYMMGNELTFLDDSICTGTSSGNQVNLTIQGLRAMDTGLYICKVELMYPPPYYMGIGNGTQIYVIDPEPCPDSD
Assay: SPR, Biacore T200; antibody captured, CTLA4-his as analyte
pKd: −log10 of the molar value.
experimental readout: pKd

mouse anti-CTLA4 monoclonal antibody D1G6 (antibody, V domains shown, mouse mAb purified from hybridoma supernatant) VH: EVQLQQSGPELVKPGASVKLSCKASGNTFTTYVLNWVKQKPGQGLEWIGYFNPYNDAIKYNEKFKGKATLTSDKSSSTAYMELSSLTSEDSAVYYCARFEGGGYAMDYWGQGTSVTVSS VL: DIVLTQSPASLAVSLGQRATISCRASQSVGTSSYSYIHWYQQKPGQPPKLLIKYASDLESGVPARFSGSGSGTDFTLNIHPVEEEDTATYYCQHSWEIPYTFGGGTKLEIK; 8.71
